target: human HSL (Homo sapiens); construct: overlapping PCR to generate a full length human HSL ORF with a 3′-His6 tag; His6 (C); experiment: Human Hormone-Sensitive Lipase (HSL) Enzyme Inhibition Assay; settings: colorimetric assay, 2,3-dimercapto-1-propanol tributyrate (DMPT) substrate, 37° C. for 20 minutes, absorbance at 405 nm; read-out: HSL hum IC50
Sequence (Q05469 whole entry): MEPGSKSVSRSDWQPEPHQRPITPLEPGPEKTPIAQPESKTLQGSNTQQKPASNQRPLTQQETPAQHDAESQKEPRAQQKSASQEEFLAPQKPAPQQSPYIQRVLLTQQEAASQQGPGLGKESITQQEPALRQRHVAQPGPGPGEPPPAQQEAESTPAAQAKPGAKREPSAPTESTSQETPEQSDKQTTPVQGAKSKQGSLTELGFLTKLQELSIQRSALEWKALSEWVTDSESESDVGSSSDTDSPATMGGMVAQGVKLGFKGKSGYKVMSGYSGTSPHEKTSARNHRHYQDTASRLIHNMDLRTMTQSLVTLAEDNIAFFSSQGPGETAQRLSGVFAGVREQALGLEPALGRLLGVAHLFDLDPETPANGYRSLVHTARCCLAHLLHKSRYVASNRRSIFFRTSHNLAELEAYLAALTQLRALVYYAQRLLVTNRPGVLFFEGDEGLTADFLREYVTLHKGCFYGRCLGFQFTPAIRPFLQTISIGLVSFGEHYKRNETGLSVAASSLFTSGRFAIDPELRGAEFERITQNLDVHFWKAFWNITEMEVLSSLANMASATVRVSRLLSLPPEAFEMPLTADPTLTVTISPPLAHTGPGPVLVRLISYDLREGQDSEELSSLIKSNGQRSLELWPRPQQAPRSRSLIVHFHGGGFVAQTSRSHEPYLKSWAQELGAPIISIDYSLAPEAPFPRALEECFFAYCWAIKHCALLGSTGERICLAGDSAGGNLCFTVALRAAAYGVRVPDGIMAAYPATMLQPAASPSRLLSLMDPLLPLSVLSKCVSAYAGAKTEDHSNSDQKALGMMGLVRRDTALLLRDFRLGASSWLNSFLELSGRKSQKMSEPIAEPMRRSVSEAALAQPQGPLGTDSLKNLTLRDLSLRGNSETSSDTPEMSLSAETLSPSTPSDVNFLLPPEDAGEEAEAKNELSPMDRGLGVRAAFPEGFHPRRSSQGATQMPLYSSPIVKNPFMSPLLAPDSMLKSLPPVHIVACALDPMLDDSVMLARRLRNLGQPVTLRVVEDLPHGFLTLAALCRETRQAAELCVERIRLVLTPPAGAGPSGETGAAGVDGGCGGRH
pIC50: −log10 of the molar value.
Rule: pIC50 of 7 or more gives Satisfied; anything lower gives Not satisfied.

Task: Hi team, for O=C(NCc1ccc(F)cc1)N1CCC2(CC1)CCN(c1ccc(OC(F)(F)F)cc1)C2=O [Example 261] , is the recorded pIC50 at or above 7?
Result: Not satisfied

* * *

target: human HSL (Homo sapiens); construct: overlapping PCR to generate a full length human HSL ORF with a 3′-His6 tag; His6 (C); assay: Human Hormone-Sensitive Lipase (HSL) Enzyme Inhibition Assay; details: colorimetric assay, 2,3-dimercapto-1-propanol tributyrate (DMPT) substrate, 37° C. for 20 minutes, absorbance at 405 nm; read-out: HSL hum IC50
pIC50: −log10 of the molar value.
Rule: pIC50 of 7 or more gives Met; anything lower gives Not met.

Reference set (2 entries):
INSERT INTO assay_data (compound, category_label) VALUES
  ('O=C(CC1CCCC1)N1CCC2(CC1)CCN(c1ccc(C3CC3)cc1)C2=O [Example 37]', 'Not met'),
  ('CCc1ccc(N2CCC3(CCN(S(=O)(=O)c4ccc(C(F)(F)F)cc4Cl)CC3)C2=O)cc1 [Example 69]', 'Not met');

Task: Hi team, for O=C1N(c2ccc(C3CC3)cc2)CCC12CCN(S(=O)(=O)Cc1ccccc1)CC2 [Example 38] , is the recorded pIC50 at or above 7?
Result: Met

Task: Hi team, for CCC(C)c1ccc(N2CCC3(CCN(S(=O)(=O)c4ccc(C)s4)CC3)C2=O)cc1 (stereo not shown) [Example 45] , is the recorded pIC50 at or above 7?
Result: Met

Task: Hi team, for Cn1ncc2cc(N3CCC4(CCN(S(=O)(=O)c5ccccc5Cl)CC4)C3=O)ccc21 [Example 130] , is the recorded pIC50 at or above 7?
Result: Met

* * *

target: human HSL (Homo sapiens); construct: overlapping PCR to generate a full length human HSL ORF with a 3′-His6 tag; His6 (C); assay: Human Hormone-Sensitive Lipase (HSL) Enzyme Inhibition Assay; conditions: colorimetric assay, 2,3-dimercapto-1-propanol tributyrate (DMPT) substrate, 37° C. for 20 minutes, absorbance at 405 nm; read-out: HSL hum IC50
test readout: IC50
Value and unit, in that order.

INSERT INTO assay_data (compound, result) VALUES
  ('O=C1N(c2ccc(OC(F)(F)F)cc2)CCC12CCN(S(=O)(=O)Nc1ccccc1)CC2', '60 nM');

Task: Indicate the recorded IC50 value for this compound: O=C1N(c2ccc(C(O)CF)cc2)CCC12CCN(S(=O)(=O)c1ccccc1C(F)(F)F)CC2 (centres unmarked)
Result: 140 nM

Task: Indicate the recorded IC50 value for this compound: COCCOc1ccc(N2CCC3(CCN(S(=O)(=O)c4ccccc4OC(F)(F)F)CC3)C2=O)cc1
Result: 40 nM

Task: Indicate the recorded IC50 value for this compound: CC(C)(C)CC(=O)N1CCC2(CC1)CCN(c1ccc(OCC(F)(F)F)cc1)C2=O
Result: 600 nM

Task: Indicate the recorded IC50 value for this compound: CC(C)(C)c1ccc(N2CCC3(CCN(S(=O)(=O)c4ccccc4)CC3)C2=O)cc1
Result: 30 nM

Task: Indicate the recorded IC50 value for this compound: COCC(C)(C)c1ccc(N2CCC3(CCN(S(=O)(=O)c4c(C)noc4C)CC3)C2=O)cc1
Result: 270 nM

Task: Indicate the recorded IC50 value for this compound: CCN(Cc1ccncc1)C(=O)N1CCC2(CC1)CCN(c1ccc(OC(F)(F)F)cc1)C2=O
Result: 350 nM

Task: Indicate the recorded IC50 value for this compound: O=C1N(c2ccc(I)cc2)CCC12CCN(S(=O)(=O)c1ccccc1OC(F)(F)F)CC2
Result: 40 nM

Ref: patent US8329904B2
